Numbers sourced from patent US20260167731A1.

Measured Target: human CCR8 (human, UniProt P51685 1-355)
Experiment Description: cell-based or functional assay
hCCL1 (100 nM) residual response in %, Protocol #2, mAb 10 µg/mL (66.7 nM) for assorted binders
Readout Type: hCCL1 (100 nM) residual response in %, Protocol #2, mAb 10 µg/mL (66.7 nM) (%)

>  <Binder>
anti-CCR8 mAb 2-1 (antibody, V domains shown) VH: KVQLQQSGPELVKPGASVKISCKTSGYTFTEYTIHWVQQIHGKSPEWIGGINPNGDTRYDQKFKGKATLTIDKSSSTAYMELRSLTSEDSAVYYCARVARFYGISPYAMDYWGQGTSVTVSS VL: DVVMTQTPLSLPVSLGDQASISCRCTQSLLHSNGDTYLHWYLQKPGQSPNLLIYKVSNRFSGVPDRFSGSGSGTDFTLKINRVEAEDLGVYFCSQSTHVPYTFGGGTNLEIK

>  <Experimental Value>
100

$$$$
>  <Binder>
anti-CCR8 mAb 2-10 (antibody, V domains shown) VH: QVQVQQSGAELARPGASVKMSCKASGYTFTTYAMHWVKQRPGQGLEWIGHINPSSGYSNYNQKFKDKATLTADKSSSTAYMQLSSLTSEDSAVYYCARSEVRRGYFDVWGAGTTVTVSS VL: DIQMTQTTSSLSASLGDRVTISCRTSQDIRNYLNWYQQKPDGTVKLLISYTSRLHSGVPSRFSGSGSGTDYSLTISNLEQEDFATYFCQQGNTLPPTFGGGTRVEIK

>  <Experimental Value>
53

$$$$
>  <Binder>
humanized anti-CCR8 mAb 2-15 (antibody, human IgG1, kappa, V domains shown, Humanized, human IgG1 / kappa) VH: QVQLQQSGPEVVKPGASVKVSCKTSGYTFTEYTIHWVRQSHGQSLEWVGGINPNNGNTRYDQKFKGRVTITIDKSSSTAYMELRSLTSEDTAVYYCARVARSSGSGPYAMDYWGQGTTVTVSS VL: DVVMTQSPLSLPVTLGDQASISCRCSQSLLHTNGDTYLHWYLQRPGQSPRLLIYKVSNRFSGVPDRFSGSGSGTDFTLKISRVEAEDVGVYFCSQSTHVPYTFGGGTKVEIKR

>  <Experimental Value>
41

$$$$
>  <Binder>
anti-CCR8 mAb 2-3 (antibody, V domains shown) VH: EVQLQQSGPELLKPGTSVKISCTTSGYTFSDYTLHWVKQSHGKSLEWIGGITPKNGDTRYDPRFKDKATLTIDKSSSAAYMELRSLTSEDSAVYYCARVARFYGVSPYAMDYWGQGASVTVSS VL: DVVMTQTPLSLPVSLGDQASISCRCTQSLLHSNGDTYLHWYLQKPGQSPKLLIYKVSNRFSGVPDRFSGSGSGTDFTLEITRVEAEDLGVYFCSQTTHVPYTFGGGTKLEIK

>  <Experimental Value>
17

$$$$
